Values from the supplement of paper PMC3334620

Target: Nrg2 (UniProt P38082)
Sequence: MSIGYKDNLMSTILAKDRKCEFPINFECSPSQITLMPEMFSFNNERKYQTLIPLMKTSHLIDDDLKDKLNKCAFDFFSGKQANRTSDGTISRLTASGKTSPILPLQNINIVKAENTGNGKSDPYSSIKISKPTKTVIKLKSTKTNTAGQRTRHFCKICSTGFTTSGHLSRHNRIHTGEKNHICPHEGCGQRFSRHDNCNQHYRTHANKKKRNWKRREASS
Test: PBM E-score (8-mer binding enrichment) (E-score (-0.5 to 0.5)); higher = stronger / more preferred TF binding
Settings: protein concentration: 100 nM; construct: GST-full length
In all, about 33,000 sequences were measured (“E-score (-0.5 to 0.5)”: median about -8e-05, highest 2% from about 0.23 on). Shown is part of a subset that was picked to be rich in the highest values.
Each entry below carries its recorded PBM E-score.
measured.property: PBM E-score

[[record]]
polymer_sequence = "TCACTAAA"
measured_number = 0.099

[[record]]
polymer_sequence = "AGAATCAA"
measured_number = 0.103

[[record]]
polymer_sequence = "AGAATCAT"
measured_number = 0.0757

[[record]]
polymer_sequence = "CTAATTGC"
measured_number = 0.0943

[[record]]
polymer_sequence = "CGAATCAG"
measured_number = 0.122

[[record]]
polymer_sequence = "ACCTCGAG"
measured_number = 0.281

[[record]]
polymer_sequence = "ATACCAAT"
measured_number = 0.0716

[[record]]
polymer_sequence = "ATGATGGG"
measured_number = 0.0257

[[record]]
polymer_sequence = "CGGTCGAC"
measured_number = -0.0395

[[record]]
polymer_sequence = "TTAAATAA"
measured_number = 0.186

[[record]]
polymer_sequence = "ATAAAAAT"
measured_number = 0.122

[[record]]
polymer_sequence = "ATTCGGGA"
measured_number = 0.0112

[[record]]
polymer_sequence = "GGAATTAA"
measured_number = 0.153

[[record]]
polymer_sequence = "GCACTAAA"
measured_number = 0.0452

[[record]]
polymer_sequence = "TCTCAACA"
measured_number = 0.0641

[[record]]
polymer_sequence = "TGGTTCAA"
measured_number = 0.103

[[record]]
polymer_sequence = "CTTACCCA"
measured_number = 0.0294

[[record]]
polymer_sequence = "ATAAAAGG"
measured_number = -0.128

[[record]]
polymer_sequence = "GCGAGTAA"
measured_number = 0.198

[[record]]
polymer_sequence = "ATCTGCGC"
measured_number = 0.0656

[[record]]
polymer_sequence = "AGTCTGAG"
measured_number = -0.319

[[record]]
polymer_sequence = "CCCTGTAA"
measured_number = 0.294

[[record]]
polymer_sequence = "AAGTGCGG"
measured_number = 0.133

[[record]]
polymer_sequence = "ATAAATAG"
measured_number = 0.0238

[[record]]
polymer_sequence = "GAGGGCAC"
measured_number = -0.111

[[record]]
polymer_sequence = "ATAAAAAA"
measured_number = 0.0337

[[record]]
polymer_sequence = "TTACTAAA"
measured_number = 0.123

[[record]]
polymer_sequence = "CGAATTAA"
measured_number = 0.175

[[record]]
polymer_sequence = "AGCTCTGA"
measured_number = -0.199

[[record]]
polymer_sequence = "AGAACCTC"
measured_number = -0.232

[[record]]
polymer_sequence = "CGTCCGAG"
measured_number = 0.0587

[[record]]
polymer_sequence = "GCCTGTAA"
measured_number = -0.225

[[record]]
polymer_sequence = "TGACGTAA"
measured_number = -0.175

[[record]]
polymer_sequence = "CGAATCAA"
measured_number = 0.22

